Test system: R. eutropha
ASSAY_REMARKS: Spot assay of R. eutropha in the presence of Co^2+
Format: cell-based, Ralstonia eutropha
CONDITIONS: estimated by comparison at 1/100 dilution, FIG. 18, read-out: half maximal inhibitory concentration, IC50 (concentration of Co^2+ toxic to R. eutropha)
READOUT_NAME: IC50

Incoming: Supply measured IC50 of [Co+2] [Co^2+] in your reply.
Outgoing: ~25 µM

The measurements presented in this section are drawn from patent US11091781B2.
